assay: chemical genetic growth profiling, strain panel (AID 1159580);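 also: tested at 20 µM; growth read once vehicle control cultures reached saturation at 30 °C; 1 = growth at the plate median or of vehicle wells; lower values mean less growth of the strain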; conditions: S. cerevisiae deletion strains, growth OD, locus YML016C, strain PPZ1, active compounds read low
Among all 5,500 compounds or so, about 2,000 (36%) were called active. Inconclusive results (about 18%) are left out. The list shows a part of the results.

{"molecule": "COC(=O)[C@@H]1OC(=O)C2OC23[C@@]1(C)CCC1[C@@]2(C)CCC(=O)C(C)(C)C2C[C@@H](OC(C)=O)[C@]13C (stereo partly drawn)", "normalized growth": 1.01}
{"molecule": "N[C@@H](C(=O)O)[C@@H](O)[C@H](O)[C@H](O)CO", "normalized growth": 1.01}
{"molecule": "CC(C)/C(O)=C1/C(=O)O[C@@H](c2ccoc2)[C@]2(C)C(O)[C@@H](O)[C@@]34OC5(C)OC67CC(C)(C(O)[C@]6(O)[C@@H](O)[C@]3(O5)C12)[C@H](CC(=O)O)[C@]74C (stereo partly drawn)", "normalized growth": 1.01}
{"molecule": "COc1ccc(CCC(=O)c2c(O)cc(O[C@@H]3O[C@H](CO)C(O)[C@H](O)C3O[C@@H]3O[C@@H](C)[C@H](O)[C@@H](O)[C@H]3O)cc2O)cc1O (stereo partly drawn)", "normalized growth": 1.01}
{"molecule": "Cc1cc(/C=C/c2ccc3cc(N(C)C)ccc3[n+]2C)c(C)n1-c1ccccc1", "normalized growth": 0.906}
{"molecule": "COP(=S)(OC)Oc1ccc([N+](=O)[O-])cc1", "normalized growth": 0.951}
{"molecule": "O=C1CCCCC/C=C/CCCCCCCCO1", "normalized growth": 1.01}
{"molecule": "NC(C(=O)O)C(O)C(=O)O (stereo not drawn)", "normalized growth": 1.01}
